Experiment: Plasma concentrations (pharmacokinetics) in male Sprague Dawley rats, iv and po
Type: in vivo
Details: rat, iv (1 mg/kg) or po (5 mg/kg)
MEASURED_QUANTITY: clearance (mL/min/kg)
Answers are plain numbers, in mL/min/kg.

Using the record for `COc1nc(-c2cc(C)c(N[C@@H](C)c3ccc(F)cc3)nn2)ccc1-n1cnc(C)c1` , report its clearance.
1.48

====

Test system: Aβ42
Assay: Aβ42 IC50 assay (SHSYSY-APP cell-based screening, UCSD sandwich Aβ42 ELISA)
MEASURED_QUANTITY: IC50 (nM)
Answers are plain numbers, in nM.

molecule="COc1nc(-c2ccc(NC(C)(C)c3ccc(F)cc3)nn2)ccc1-n1cnc(C)c1 [Example 23]" test_result=22

Field: IC50. Fill in for each record below.
1. COc1nc(-c2nnc(N[C@@H](C)c3ccc(F)cc3)c3c2CCC3)ccc1-n1cnc(C)c1 [Example 29]
2. COc1nc(-c2nnc(N[C@@H](C)c3ccc(F)cc3)c(C)c2C)ccc1-n1cnc(C)c1 [Example 15]

1. 12.8
2. 67

Quick one: IC50 for COc1nc(-c2cc(C)c(NC3(c4ccc(F)cc4)CC3)nn2)ccc1-n1cnc(C)c1 [Example 60] ?
12

====

Assay: Plasma concentrations (pharmacokinetics) in male Sprague Dawley rats, iv and po
Type: in vivo
Conditions: rat, iv (1 mg/kg) or po (5 mg/kg)
MEASURED_QUANTITY: bioavailability (%)
Give bare numbers, in %.

GET /values?readout=bioavailability&item= `COc1nc(-c2cc(C)c(N[C@@H](C)c3ccc(F)cc3)nn2)ccc1-n1cnc(C)c1`
60.3

====

Tested on: Aβ42
Assay: Aβ42 IC50 assay (SHSYSY-APP cell-based screening, UCSD sandwich Aβ42 ELISA)
MEASURED_QUANTITY: IC50 (µM)
Give bare numbers, in µM.

Please review the entries below; each comes with its answer.
compound="CCC[C@H](Nc1nnc(-c2ccc(-n3cnc(C)c3)c(OC)n2)cc1C)c1ccc(F)cc1 [Example 79]" system_tested=Aβ42 measured_quantity=IC50 test_result=0.0075
compound="COc1nc(-c2cc(C)c(NC(C)c3nc4ccccc4o3)nn2)ccc1-n1cnc(C)c1 (racemic) [Example 74]" system_tested=Aβ42 measured_quantity=IC50 test_result=0.042
compound="COc1nc(-c2cc(C)c(N[C@@H](C)c3cccc(C(F)(F)F)c3)nn2)ccc1-n1cnc(C)c1 [Example 49]" system_tested=Aβ42 measured_quantity=IC50 test_result=0.007

Provide the reported IC50 of each entry below, same order.
1. COc1nc(-c2cc(C)c(N[C@@H](C)C3CCCCC3)nn2)ccc1-n1cnc(C)c1 [Example 58]
2. COc1nc(-c2cc(C)c(N[C@H](c3ccc(F)cc3)C(C)C)nn2)ccc1-n1cnc(C)c1 [Example 57]
3. COc1nc(-c2cc(C)c(N[C@@H](C)c3ccccn3)nn2)ccc1-n1cnc(C)c1 [Example 67]
4. COc1nc(-c2cc(C)c(NC3CCC(F)(F)CC3)nn2)ccc1-n1cnc(C)c1 [Example 85]
5. CCc1cc(-c2ccc(-n3cnc(C)c3)c(OC)n2)nnc1N[C@H](C)c1ccc(F)cc1 [Example 10]

0.012
0.004
0.095
0.07
0.0475

====

Tested on: Aβ42
Assay: Aβ42 IC50 assay (SHSYSY-APP cell-based screening, UCSD sandwich Aβ42 ELISA)
So I've got a bunch of molecules here, and I need their IC50 values.

Worked cases, answers included:
molecule="COc1nc(-c2cc(C)c(N[C@@H](C)CO)nn2)ccc1-n1cnc(C)c1 [Example 64]" measured_quantity=IC50 test_result="> 10 µM"
molecule="CC[C@@H](c1ccc(F)cc1)N(C)c1nnc(-c2ccc(-n3cnc(C)c3)c(OC)n2)cc1C [Example 21]" measured_quantity=IC50 test_result="0.061 µM"
molecule="COc1nc(-c2cc(C)c(N[C@@H](C)c3ccc(C#N)cc3)nn2)ccc1-n1cnc(C)c1 [Example 77]" measured_quantity=IC50 test_result="0.027 µM"

// below: IC50 requested for another molecule
Consider the molecule COc1nc(-c2cc(C)c(N[C@@H](C)c3cc(F)c(F)c(F)c3)nn2)ccc1-n1cnc(C)c1 [Example 52] and give its measured IC50.
0.005 µM
